system.tested: purified human plasma kallikrein (Homo sapiens (Human), UniProt P03952)
Sequence (P03952 391-638): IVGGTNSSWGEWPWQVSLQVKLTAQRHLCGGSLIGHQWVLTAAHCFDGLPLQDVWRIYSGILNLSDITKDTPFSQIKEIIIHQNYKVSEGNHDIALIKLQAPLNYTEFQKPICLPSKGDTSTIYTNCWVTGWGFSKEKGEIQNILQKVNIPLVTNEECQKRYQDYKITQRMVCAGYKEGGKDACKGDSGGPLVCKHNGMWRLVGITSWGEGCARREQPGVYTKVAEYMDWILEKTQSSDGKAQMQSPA
Sequence (P03952 20-390 partner): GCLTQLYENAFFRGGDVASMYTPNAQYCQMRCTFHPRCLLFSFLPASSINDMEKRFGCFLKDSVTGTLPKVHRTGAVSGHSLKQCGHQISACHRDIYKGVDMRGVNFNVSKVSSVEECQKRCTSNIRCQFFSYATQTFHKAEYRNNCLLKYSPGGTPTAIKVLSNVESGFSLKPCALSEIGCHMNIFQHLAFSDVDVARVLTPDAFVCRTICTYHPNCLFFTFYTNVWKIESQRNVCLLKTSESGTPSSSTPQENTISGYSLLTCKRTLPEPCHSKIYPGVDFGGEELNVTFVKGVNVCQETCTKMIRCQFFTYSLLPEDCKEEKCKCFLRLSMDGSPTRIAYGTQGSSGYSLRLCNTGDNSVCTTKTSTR
method.notes: Plasma kallikrein enzyme inhibition assay (chromogenic substrate S-2302)
Type: biochemical
condition.context: measured at 25° C. (no asterisk)
Where a name gives a salt, the structure may show the parent alone.
measurement.type: Ki (nM)
Give just the number in nM; leave the unit off.

Give its Ki value. Item: CN1CCN(c2cccc3c2CCN(C(=O)c2cn(-c4cccc(Cl)c4F)nn2)[C@@H]3C(=O)Nc2ccc(C(=O)O)cc2)C(=O)C1 [Example 80, HCl]
6.37

What value of measured Ki is listed for Nc1ncc(-c2cccc3c2CCN(C(=O)c2cn(-c4cccc(Cl)c4F)nn2)C3C(=O)Nc2ccc(C(=O)O)cc2)cn1 (stereo not drawn) [Example 30, TFA salt] ?
15.7

What does the record list as Ki for CN(C)C1CCN(c2cccc3c2CCN(C(=O)c2cn(-c4cccc(Cl)c4F)nn2)[C@H]3C(=O)Nc2ccc(C(N)=O)cc2)CC1 [Example 100, bis-TFA salt] ?
494
